Catalogue of MIC readings, one per entry.
# System: Staphylococcus epidermidis
# PROTOCOL: Antibacterial activity against methicillin-susceptible, inducible MLS-resistant Staphylococcus epidermidis E1 by broth microdilution method
# Type: functional

[
  {
    "CPD_SMILES": "CC[C@H]1OC(=O)[C@H](C)[C@@H](OC/C=C/c2cncnc2)[C@H](C)[C@@H](O[C@@H]2O[C@H](C)C[C@H](N(C)C)[C@H]2O)[C@](C)(OC)C[C@@H](C)/C(=N\\O)[C@H](C)[C@H]2OC(=O)O[C@@]21C",
    "ASSAYED_SYSTEM": "Staphylococcus epidermidis",
    "MIC": "> 256 µg/mL"
  },
  {
    "CPD_SMILES": "CC[C@H]1OC(=O)[C@H](C)[C@@H](OC/C=C/c2cncnc2)[C@H](C)[C@@H](O[C@@H]2O[C@H](C)C[C@H](N(C)C)[C@H]2O)[C@](C)(OC)C[C@@H](C)/C(=N\\OCc2c(C)cc(C)cc2C)[C@H](C)[C@H]2OC(=O)O[C@@]21C",
    "ASSAYED_SYSTEM": "Staphylococcus epidermidis",
    "MIC": "> 256 µg/mL"
  },
  {
    "CPD_SMILES": "CC[C@H]1OC(=O)[C@H](C)[C@@H](OCC#Cc2cncnc2)[C@H](C)[C@@H](O[C@@H]2O[C@H](C)C[C@H](N(C)C)[C@H]2O)[C@](C)(OC)C[C@@H](C)/C(=N\\O)[C@H](C)[C@@H](O)[C@]1(C)O",
    "ASSAYED_SYSTEM": "Staphylococcus epidermidis",
    "MIC": "> 256 µg/mL"
  },
  {
    "CPD_SMILES": "CC[C@H]1OC(=O)[C@H](C)[C@@H](O[C@H]2C[C@@](C)(OC)[C@@H](O)[C@H](C)O2)[C@H](C)[C@@H](O[C@@H]2O[C@H](C)C[C@H](N(C)C)[C@H]2O)[C@](C)(O)C[C@@H](C)CN(C)[C@H](C)[C@@H](O)[C@]1(C)O",
    "ASSAYED_SYSTEM": "Staphylococcus epidermidis",
    "MIC": "> 256 µg/mL"
  },
  {
    "CPD_SMILES": "CC[C@H]1OC(=O)[C@H](C)[C@@H](O[C@H]2C[C@@](C)(OC)[C@@H](O)[C@H](C)O2)[C@H](C)[C@@H](O[C@@H]2O[C@H](C)C[C@H](N(C)C)[C@H]2O)[C@](C)(OC)C[C@@H](C)C(=O)[C@H](C)[C@@H](O)[C@]1(C)O",
    "ASSAYED_SYSTEM": "Staphylococcus epidermidis",
    "MIC": "> 256 µg/mL"
  },
  {
    "CPD_SMILES": "CC[C@H]1OC(=O)[C@H](C)[C@@H](O/C=C\\Cc2cncnc2)[C@H](C)[C@@H](O[C@@H]2O[C@H](C)C[C@H](N(C)C)[C@H]2O)[C@](C)(OC)C[C@@H](C)C(=O)[C@H](C)[C@@H](O)[C@]1(C)O",
    "ASSAYED_SYSTEM": "Staphylococcus epidermidis",
    "MIC": "4 µg/mL"
  }
]

----------
# System: Streptococcus dysgalactiae
# PROTOCOL: Antibacterial activity against efflux, erythromycin-resistant Streptococcus dysgalactiae A 1 by broth microdilution method
# Format: functional

[
  {
    "MOLECULE": "CC[C@H]1OC(=O)[C@H](C)[C@@H](OC/C=C/c2cncnc2)[C@H](C)[C@@H](O[C@@H]2O[C@H](C)C[C@H](N(C)C)[C@H]2O)[C@](C)(OC)C[C@@H](C)/C(=N\\O)[C@H](C)[C@@H](O)[C@]1(C)O",
    "MIC, µg/mL": 16
  },
  {
    "MOLECULE": "CC[C@H]1OC(=O)[C@H](C)[C@@H](OC/C=C/c2cncnc2)[C@H](C)[C@@H](O[C@@H]2O[C@H](C)C[C@H](N(C)C)[C@H]2O)[C@](C)(OC)C[C@@H](C)/C(=N\\O)[C@H](C)[C@H]2OC(=O)O[C@@]21C",
    "MIC, µg/mL": 1
  },
  {
    "MOLECULE": "CC[C@H]1OC(=O)[C@H](C)[C@@H](O[C@H]2C[C@@](C)(OC)[C@@H](O)[C@H](C)O2)[C@H](C)[C@@H](O[C@@H]2O[C@H](C)C[C@H](N(C)C)[C@H]2O)[C@](C)(O)C[C@@H](C)CN(C)[C@H](C)[C@@H](O)[C@]1(C)O [AZITHROMYCIN]",
    "MIC, µg/mL": 32
  }
]

All figures here come from ChEMBL document CHEMBL1944546.
